Below, each of the compounds is paired with its reported Emax, Mouse GPR132, β‐arrestin value.
- targetSystem: Mouse GPR132 (Mus musculus)
- Sequence (Q9Z282 1-382): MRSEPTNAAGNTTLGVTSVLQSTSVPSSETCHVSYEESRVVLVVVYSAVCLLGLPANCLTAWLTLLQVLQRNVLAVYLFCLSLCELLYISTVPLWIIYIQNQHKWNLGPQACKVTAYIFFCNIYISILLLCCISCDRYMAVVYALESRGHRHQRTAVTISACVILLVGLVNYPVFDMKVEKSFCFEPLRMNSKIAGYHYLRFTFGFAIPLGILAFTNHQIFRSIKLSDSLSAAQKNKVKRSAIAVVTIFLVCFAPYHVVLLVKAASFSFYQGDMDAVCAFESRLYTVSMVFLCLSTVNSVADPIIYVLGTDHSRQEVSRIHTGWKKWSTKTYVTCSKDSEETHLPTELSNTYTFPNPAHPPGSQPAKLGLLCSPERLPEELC
- experimentSummary: β‐arrestin association
- Assay type: cell-based
- reportedConditions: normalized to the effect of SB‐583831

{"columns": ["compound", "targetSystem", "Emax, Mouse GPR132, β‐arrestin"],
 "data": [
  ["CCCCC/C=C\\C=C\\C(O)CCCCCCCC(=O)O (stereo not shown) [9‐HODE, 9‐hydroxyoctadecadienoic acid]", "Mouse GPR132 (Mus musculus)", "97 ± 6%"],
  ["CCCCC/C=C\\C/C=C\\CCCCCCCC(=O)NCC(=O)O", "Mouse GPR132 (Mus musculus)", "40%"],
  ["CCCCCCCC/C=C\\CCCCCCCC(=O)NCC(=O)O", "Mouse GPR132 (Mus musculus)", "44 ± 10%"],
  ["CCCCCCCCCCCCCCCC(=O)NCC(=O)O", "Mouse GPR132 (Mus musculus)", "11%"]
]}
